# assay-name: yeast display, Sf9 membrane polyspecificity reagent, FACS + sequencing; frameworks hold sequencing errors
metric-name: polyreactivity (PSR sort gate)

# seq, observed-result
data = [
    ("QVQLVESGGGLVQAGGSLRLSCAASGIIFRGYAMGWDRQAPGKERELVARISITGGRTYYADSVKGRFTLSRDNAKNTVYLQMNSLKPEDTAVYYCAAGKYVRTVRYDYWGQGPQVTVSS", "high polyreactivity"),
    ("QVQLVESGGGLVQAGGSLRLSCAASGIIFTYYAMGWYTQAPGKERELVAAISSRGDSTYYADSVKGRFTISRDNAKNTVYLQMNSLKPEDTAVYYCNRYLSRPLRAMYYWGLGTQVTVSS", "high polyreactivity"),
    ("QVQLVESGGGLVQAGGSLRLSCAASGYTFQTNTMGWYRQAPGKERELVAAITDGDSTNYADSVKGRFTISRDNAKNTVYLQMNSLKPEDTAVYYCAAQYYYSEAGMDYWGQGTQVTVSS", "low polyreactivity"),
    ("QVQLVESGGGLVQAGGSLRLSCAASGRIFSTYTMGWYRQAPGKERELVAAIRANGGSTYYADSVKGRFTISRDNAKNTVYLQMNSLKPEVTAVYYCNARRPIGTGYYWGQGTQVTVSS", "high polyreactivity"),
    ("QVQLVESGGGLVQAGGSLRLSSAASVSTVTPYAMGWYRQAPGKERELVAVISESGGSTYYADSVKGRFTISRDNAKNTVYLQMNSLKPEDTAVYYCAKASYPEVLYYFFRGYTFDSWGQGTQVTVSS", "low polyreactivity"),
]
